Give activity at 0.25 h, 10 µM for every item shown.
System under test: CYP2A6 (Homo sapiens)
Sequence (P11509 whole entry): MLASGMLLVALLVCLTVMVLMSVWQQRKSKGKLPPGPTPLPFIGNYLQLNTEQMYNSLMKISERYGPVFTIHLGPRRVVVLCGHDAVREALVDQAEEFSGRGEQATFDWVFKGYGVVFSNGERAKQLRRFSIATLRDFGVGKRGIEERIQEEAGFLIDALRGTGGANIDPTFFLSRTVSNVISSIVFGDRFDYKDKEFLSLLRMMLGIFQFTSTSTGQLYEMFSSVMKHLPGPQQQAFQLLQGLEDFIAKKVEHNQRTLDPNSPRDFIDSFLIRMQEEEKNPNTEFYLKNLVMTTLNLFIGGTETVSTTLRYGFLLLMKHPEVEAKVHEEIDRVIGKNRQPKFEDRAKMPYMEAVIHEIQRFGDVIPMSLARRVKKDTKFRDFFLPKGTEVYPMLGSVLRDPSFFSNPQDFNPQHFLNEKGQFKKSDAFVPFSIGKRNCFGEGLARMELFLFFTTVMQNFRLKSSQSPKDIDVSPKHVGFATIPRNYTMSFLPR
Assay comment: Inhibition of CYP2A6 in human liver microsomes assessed as residual activity at 10 uM using coumarin as substrate preincubated for 5 mins followed by NADPH addition and measured after 15 mins by LC-MS/MS analysis relative to control
Format: ADME
Setup conditions: probe coumarin, read-out: Activity
Give bare numbers, in %.

Illustrative cases are given below, each with its answer.
Compound: C=CC(=O)Nc1cc2c(Nc3ccc(F)c(Cl)c3)ncnc2cc1OCc1cn(Cc2ccc(Cl)cc2)nn1
System under test: CYP2A6 (Homo sapiens)
activity at 0.25 h, 10 µM (%): 89
//
Compound: C=CC(=O)Nc1cc2c(Nc3ccc(F)c(Cl)c3)ncnc2cc1OCc1cn(Cc2cccc(F)c2)nn1
System under test: CYP2A6 (Homo sapiens)
activity at 0.25 h, 10 µM (%): 91
//
Compound: CC(=O)N1CCN(c2ccc(OCC3COC(Cn4ccnc4)(c4ccc(Cl)cc4Cl)O3)cc2)CC1 (centres undefined)
System under test: CYP2A6 (Homo sapiens)
activity at 0.25 h, 10 µM (%): 91.8

// next item, activity at 0.25 h, 10 µM requested
Qu. Under CYP2A6 (Homo sapiens): report activity at 0.25 h, 10 µM of `C=CC(=O)Nc1cc2c(Nc3ccc(F)c(Cl)c3)ncnc2cc1OCc1cn(Cc2ccc(F)cc2)nn1` .
Ans. 82.7
